Consider the following molecules; for each one, report its remaining activity at 10 µM.
SYSTEM: tau protein (Homo sapiens, UniProt P10636)
Construct: fused on or other part: Split fluorescent-protein halves for BiFC are fused to tau; In the published tau-BiFC line these are Venus VN173 and VC155
Sequence (P10636 2-441 isoform P10636-8 limits assumed): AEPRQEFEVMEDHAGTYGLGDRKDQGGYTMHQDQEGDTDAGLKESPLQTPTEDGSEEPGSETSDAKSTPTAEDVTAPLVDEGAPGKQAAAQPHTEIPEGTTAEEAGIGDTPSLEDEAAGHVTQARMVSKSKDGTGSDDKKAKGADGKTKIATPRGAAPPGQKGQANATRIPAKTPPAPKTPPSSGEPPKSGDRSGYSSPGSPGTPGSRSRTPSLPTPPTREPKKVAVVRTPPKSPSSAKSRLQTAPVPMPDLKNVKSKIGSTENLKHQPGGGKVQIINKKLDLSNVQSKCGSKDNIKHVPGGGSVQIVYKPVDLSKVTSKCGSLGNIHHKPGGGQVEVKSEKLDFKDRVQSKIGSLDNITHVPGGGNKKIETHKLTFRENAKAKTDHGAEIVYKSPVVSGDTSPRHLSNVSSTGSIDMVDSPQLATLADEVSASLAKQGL
TEST METHOD NOTES: Tau-BiFC cell model: inhibition of tau protein aggregation
Format: cell-based
SETUP CONDITIONS: 48 h; compound 10 μM; BiFC fluorescence, Forskolin-only group = 100% tau protein-aggregated state; read-out: Response (% @10 μM)
Give just the numeric value; % need not be written.

Supply measured remaining activity at 10 µM of N#CC(C#N)=NNc1ccc(OCCc2ccccc2)cc1 in your reply.
11.7

Please look at this molecule and report its remaining activity at 10 µM: Cc1cnc(C(=O)Nc2ccc(NN=C(C#N)C#N)cc2)cn1
0

State its remaining activity at 10 µM: Cc1ccc(NC(=O)c2ccc(NN=C(C#N)C#N)cn2)cc1
76

Determine its reported remaining activity at 10 µM: Cc1cnc(NS(=O)(=O)c2ccc(NN=C(C#N)C#N)cc2)cn1
68.2

Report remaining activity at 10 µM for Cc1cccc(C(=O)Nc2ccc(NN=C(C#N)C#N)cn2)c1F
0

Identify remaining activity at 10 µM associated with the molecule Cc1ccc(S(=O)(=O)Nc2ccc(NN=C(C#N)C#N)cn2)cc1
11.5

Give recorded remaining activity at 10 µM. Cc1cnc(C(=O)Nc2nc3ncc(NN=C(C#N)C#N)cc3s2)cn1
63.9

Assign remaining activity at 10 µM to the following record: N#CC(C#N)=NNc1ccc(OCCc2ccccc2)c(C(F)(F)F)c1
0

Give remaining activity at 10 µM for N#CC(C#N)=NNc1ccc(NC(=O)c2cscn2)nc1
0

Supply reported remaining activity at 10 µM belonging to this molecule: Cc1cc(F)cc(C(=O)Nc2ccc(NN=C(C#N)C#N)cn2)c1
0

Return remaining activity at 10 µM (reported value) for this molecule: N#CC(C#N)=NNc1ccc(NC(=O)c2nc3ccccc3s2)nc1
0

Please report the measured remaining activity at 10 µM for N#CC(C#N)=NNc1ccc(C(=O)Nc2cccnc2)cc1
75.9

Identify measured remaining activity at 10 µM associated with Cc1ccc(COc2ccc(NN=C(C#N)C#N)cc2)cc1
38.9

Supply recorded remaining activity at 10 µM for COc1ccc(CCOc2ccc(NN=C(C#N)C#N)cc2C(F)(F)F)cc1 here.
0

Give the reported value of remaining activity at 10 µM for this record: N#CC(C#N)=NNc1ccc(OCCc2ccc(C(F)(F)F)cc2)cc1
3.4

Answer with the recorded remaining activity at 10 µM of N#CC(C#N)=NNc1ccc(Oc2ccc(C(F)(F)F)nc2)cc1 only.
0

Annotate the molecule Cc1cc(NN=C(C#N)C#N)ccc1Oc1ccncc1 with its measured remaining activity at 10 µM.
65.9

Complete the entry with remaining activity at 10 µM for Cc1cnc(C(=O)Nc2cc(C)c(NN=C(C#N)C#N)cn2)cn1
30

Please list remaining activity at 10 µM recorded for the molecule N#CC(C#N)=NNc1ccc(Oc2ccccc2)cn1
0

In one line, give reported remaining activity at 10 µM of the entry N#CC(C#N)=NNc1ccc(OCc2ccc(C(F)(F)F)cc2)cc1 .
25.7

Report remaining activity at 10 µM, nothing else, for this molecule: N#CC(C#N)=NNc1ccc(Oc2ccccc2)c(C(F)(F)F)c1
0

Consider the molecule N#CC(C#N)=NNc1ccc(OCCc2ccc(Cl)cc2)nc1 . State its measured remaining activity at 10 µM.
10.6

Please give measured remaining activity at 10 µM of the following entry: N#CC(C#N)=NNc1ccc(Oc2ccc(C(F)(F)F)cn2)cc1
0

Give remaining activity at 10 µM for N#CC(C#N)=NNc1ccc(NS(=O)(=O)c2ccccc2)nc1
51.4

Read the entry N#CC(C#N)=NNc1ccc(OCc2cnccn2)cc1 and write its reported remaining activity at 10 µM.
0

Answer with the recorded remaining activity at 10 µM of N#CC(C#N)=NNc1ccc(Oc2cccc(F)c2)cc1 only.
0

Tell me remaining activity at 10 µM reported for N#CC(C#N)=NNc1ccc(NC(=O)c2ncccn2)nc1
0

Recall and state the measured remaining activity at 10 µM for COc1cc(NN=C(C#N)C#N)ccc1C(=O)Nc1ccc(C)cc1 .
0

Determine its reported remaining activity at 10 µM: N#CC(C#N)=NNc1ccc(NC(=O)c2ccoc2)nc1
0

Given the molecule N#CC(C#N)=NNc1ccc(C(=O)Nc2ncccn2)nc1 , write its reported remaining activity at 10 µM.
3

Give the reported remaining activity at 10 µM for this molecule. N#CC(C#N)=NNc1ccc(NC(=O)c2ccccc2F)nc1
0

Return value of remaining activity at 10 µM for input N#CC(C#N)=NNc1ccc(OCc2nc3ccccc3o2)cc1 , no commentary.
0

Report measured remaining activity at 10 µM; entry is N#CC(C#N)=NNc1ccc(Oc2ccccc2)nc1
0

For the molecule CN(N=C(C#N)C#N)c1ccc(Oc2ccccc2)c(C(F)(F)F)c1 , give its reported remaining activity at 10 µM.
69.6

Specify measured remaining activity at 10 µM for Cc1cnc(NC(=O)c2ccc(NN=C(C#N)C#N)cc2Cl)cn1 .
0

Check the records and state remaining activity at 10 µM for Cc1cnc(C(=O)Nc2ccc(NN=C(C#N)C#N)cc2C)cn1
0

For the molecule N#CC(C#N)=NNc1ccc(OCCc2ccc(Cl)cc2)cc1 , give its reported remaining activity at 10 µM.
0

Indicate its recorded remaining activity at 10 µM; the molecule in question is N#CC(C#N)=NNc1ccc(NS(=O)(=O)c2cccs2)nc1
87.3

Report remaining activity at 10 µM, nothing else, for this molecule: Cc1cncc(NC(=O)c2ccc(NN=C(C#N)C#N)cc2)n1
0
